Origin of measurements: ChEMBL document CHEMBL3414420

test system: HepG2; assay: Cytotoxicity against human HepG2 cells assessed as inhibition of cell proliferation after 72 hrs by MTT assay; assay type: functional, cell-based; conditions: HepG2, 72 h
Kindly supply the reported pIC50 values for the records listed here.
In simple prose, pIC50 is minus the logarithm base ten of a concentration in moles per litre.

So, `COc1cc(O)c(CC=C(C)C)c(O)c1C(=O)/C=C/c1cccc([N+](=O)[O-])c1` ? Its pIC50 was 4.78

So, `COc1ccc(/C=C/C(=O)c2c(OC)cc(O)c(CC=C(C)C)c2O)cc1OC` ? Its pIC50 was 4.86

So, `COc1cc(O)cc(O)c1C(=O)/C=C/c1cccc([N+](=O)[O-])c1` ? Its pIC50 was 4.79

So, `COc1cc(OC)c(C(=O)/C=C/c2ccc(C)cc2)c(OC)c1` ? Its pIC50 was 4.74

So, `COc1cc(OC)c(C(=O)/C=C/c2ccc(O)cc2)c(OC)c1` ? Its pIC50 was 4.43

So, `COc1ccccc1/C=C/C(=O)c1c(OC)cc(O)c(CC=C(C)C)c1O` ? Its pIC50 was 4.84

So, `COc1ccc(/C=C/C(=O)c2c(OC)cc(O)c(CC=C(C)C)c2O)c(OC)c1OC` ? Its pIC50 was 4.83

So, `COc1cc(O)cc(O)c1C(=O)/C=C/c1ccc(O)c(O)c1` ? Its pIC50 was 4.54

###

system: HepG2; assay: Cytotoxicity against human HepG2 cells assessed as inhibition of cell proliferation after 72 hrs by MTT assay; assay type: functional, cell-based; details: HepG2, 72 h
MEASURED_PROPERTY: pIC50
In simple prose, pIC50 is minus the logarithm base ten of a concentration in moles per litre.

So, `COc1cc(OC)c(C(=O)/C=C/c2cc(OC)c(OC)c(OC)c2)c(OC)c1` ? Its pIC50 was 4.78

So, `COc1ccccc1/C=C/C(=O)c1c(O)cc(O)cc1OC` ? Its pIC50 was 4.82

So, `COc1cc(OC)c(C(=O)/C=C/c2ccc(N)cc2)c(OC)c1` ? Its pIC50 was 4.34

So, `COc1cc(OC)c(C(=O)/C=C/c2ccc(C(F)(F)F)cc2)c(OC)c1` ? Its pIC50 was 5.01

So, `COc1ccc(/C=C/C(=O)c2c(O)cc(O)cc2OC)cc1OC` ? Its pIC50 was 4.73

So, `COc1cc(OC)c(OC)cc1/C=C/C(=O)c1c(O)cc(O)cc1OC` ? Its pIC50 was 4.73

So, `COc1cc(OC)c(C(=O)/C=C/c2ccc(O)c(O)c2)c(OC)c1` ? Its pIC50 was 4.56
